measured.on: recombinant human GCN2 protein (Homo sapiens, UniProt Q9P2K8)
Sequence (Q9P2K8 whole entry): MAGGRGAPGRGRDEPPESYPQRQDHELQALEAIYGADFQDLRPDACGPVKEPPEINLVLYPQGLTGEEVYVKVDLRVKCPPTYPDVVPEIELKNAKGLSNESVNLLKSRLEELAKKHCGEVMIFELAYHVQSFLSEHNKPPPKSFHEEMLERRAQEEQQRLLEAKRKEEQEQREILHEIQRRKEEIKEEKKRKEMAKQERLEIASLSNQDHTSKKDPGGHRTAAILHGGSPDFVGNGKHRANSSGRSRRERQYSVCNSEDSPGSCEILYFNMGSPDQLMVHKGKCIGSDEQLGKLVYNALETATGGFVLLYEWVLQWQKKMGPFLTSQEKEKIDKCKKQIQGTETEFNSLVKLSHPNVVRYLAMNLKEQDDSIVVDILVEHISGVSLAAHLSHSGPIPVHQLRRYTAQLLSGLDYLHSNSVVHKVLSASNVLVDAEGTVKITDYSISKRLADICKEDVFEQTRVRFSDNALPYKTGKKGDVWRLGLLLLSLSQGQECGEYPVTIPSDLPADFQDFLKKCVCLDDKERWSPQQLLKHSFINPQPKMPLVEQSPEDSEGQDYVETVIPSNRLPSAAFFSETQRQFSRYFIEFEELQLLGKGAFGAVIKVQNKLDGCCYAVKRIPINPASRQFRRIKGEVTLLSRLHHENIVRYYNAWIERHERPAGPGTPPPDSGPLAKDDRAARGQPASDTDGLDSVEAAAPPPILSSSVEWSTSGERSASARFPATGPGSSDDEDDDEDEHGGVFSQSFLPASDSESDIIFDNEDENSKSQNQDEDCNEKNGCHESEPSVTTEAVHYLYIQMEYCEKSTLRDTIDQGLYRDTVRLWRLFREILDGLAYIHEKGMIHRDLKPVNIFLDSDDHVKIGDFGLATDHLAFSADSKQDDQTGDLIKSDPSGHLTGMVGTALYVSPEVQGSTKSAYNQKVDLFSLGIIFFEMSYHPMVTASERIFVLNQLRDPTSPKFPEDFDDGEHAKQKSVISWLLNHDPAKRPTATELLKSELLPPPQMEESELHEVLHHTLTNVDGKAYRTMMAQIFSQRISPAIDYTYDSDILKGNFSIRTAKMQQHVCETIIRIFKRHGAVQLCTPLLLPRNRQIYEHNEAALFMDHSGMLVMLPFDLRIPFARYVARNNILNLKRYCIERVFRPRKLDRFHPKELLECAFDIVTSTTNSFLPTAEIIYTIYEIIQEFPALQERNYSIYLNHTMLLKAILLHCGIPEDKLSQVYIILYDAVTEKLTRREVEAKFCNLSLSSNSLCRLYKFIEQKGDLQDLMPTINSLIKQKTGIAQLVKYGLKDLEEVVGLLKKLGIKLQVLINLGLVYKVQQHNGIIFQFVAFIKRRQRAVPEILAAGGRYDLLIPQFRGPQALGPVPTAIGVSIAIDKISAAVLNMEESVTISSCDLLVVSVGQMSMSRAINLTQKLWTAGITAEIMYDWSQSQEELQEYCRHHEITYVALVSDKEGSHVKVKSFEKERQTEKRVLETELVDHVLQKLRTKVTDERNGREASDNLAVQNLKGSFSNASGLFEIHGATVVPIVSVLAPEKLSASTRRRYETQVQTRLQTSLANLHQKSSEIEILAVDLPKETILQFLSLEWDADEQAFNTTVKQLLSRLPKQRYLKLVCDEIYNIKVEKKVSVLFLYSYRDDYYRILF
experiment.notes: General control nonderepressible 2 (GCN2) inhibitory capacity, 33P-ATP filter assay
measurement.setup: recombinant human GCN2, 70 uM [gamma-33P-ATP], 40 minutes, room temperature
parameter.measured: IC50

Worked examples, 5 compounds total:
compound | reading
Nc1ncc2c(=O)n(-c3c(F)ccc(NS(=O)(=O)c4cccc5ccccc45)c3F)c(=O)n(C3CC3)c2n1 [Example 64] | 300 to 1000 nM
COc1ncc(Cl)cc1S(=O)(=O)Nc1ccc(F)c(-c2cc3cnc(N)nc3n(C)c2=O)c1F [Example 4] | > 1000 nM
COc1ncc(Cl)cc1S(=O)(=O)Nc1ccc(F)c(-n2cc(C)c3nc(N)ncc3c2=O)c1F [Example 21] | < 100 nM
Cc1n[nH]c(C)c1S(=O)(=O)Nc1ccc(F)c(-c2cc3cnc(N)nc3n(C)c2=O)c1F [Example 5] | > 1000 nM
Cc1nn(C)c(Cl)c1S(=O)(=O)Nc1ccc(F)c(N2CN(C3CC3)c3nc(N)ncc3C2=O)c1F [Example 62] | > 1000 nM

I need IC50 for every entry listed below, if you could help.
1. COc1ncc(Cl)cc1S(=O)(=O)Nc1ccc(F)c(-n2ccc3nc(N)ncc3c2=O)c1F [Example 26]
2. COc1ncc(Cl)cc1S(=O)(=O)Nc1ccc(F)c(N2CN(C3CC3)c3nc(N)ncc3C2=O)c1F [Example 60]
3. Cc1nn(C)c(C(F)(F)F)c1S(=O)(=O)Nc1ccc(F)c(-c2cc3cnc(N)nc3n(C)c2=O)c1F [Example 1]

[reply]
["< 100 nM", "100 to 300 nM", "100 to 300 nM"]
